- Test system: BEN
- method notes: relative viability (nuclei count vs DMSO), 5 days (fraction); higher = more cells survive
- details: first compound 20 µM
measurement type: relative viability

molecule	measurement type	value observed
Cc1csc(=NC2CCCCC2)n1/N=C/c1ccc(O)c(O)c1O [MIM1] + CCNC(=O)c1noc(-c2cc(C(C)C)c(O)cc2O)c1-c1ccc(CN2CCOCC2)cc1 [Luminespib] (partner 0.01 µM)	relative viability	0.173

Please look up its relative viability: Cc1csc(=NC2CCCCC2)n1/N=C/c1ccc(O)c(O)c1O [MIM1] + CC1(C)CCC(c2ccc(Cl)cc2)=C(CN2CCN(c3ccc(C(=O)NS(=O)(=O)c4ccc(N[C@H](CCN5CCOCC5)CSc5ccccc5)c(S(=O)(=O)C(F)(F)F)c4)cc3)CC2)C1 [Navitoclax] (partner 0.5 µM)
0.0543

Need relative viability, item Cc1csc(=NC2CCCCC2)n1/N=C/c1ccc(O)c(O)c1O [MIM1] + O=C(c1cc(Cc2n[nH]c(=O)c3ccccc23)ccc1F)N1CCN(C(=O)C2CC2)CC1 [Olaparib] (partner 8 µM)
0.239
